Molecular target: CETP (Homo sapiens)
Construct: made in house; host or cells: CHO cells (serum-free conditioned medium)
Sequence (P11597 18-493): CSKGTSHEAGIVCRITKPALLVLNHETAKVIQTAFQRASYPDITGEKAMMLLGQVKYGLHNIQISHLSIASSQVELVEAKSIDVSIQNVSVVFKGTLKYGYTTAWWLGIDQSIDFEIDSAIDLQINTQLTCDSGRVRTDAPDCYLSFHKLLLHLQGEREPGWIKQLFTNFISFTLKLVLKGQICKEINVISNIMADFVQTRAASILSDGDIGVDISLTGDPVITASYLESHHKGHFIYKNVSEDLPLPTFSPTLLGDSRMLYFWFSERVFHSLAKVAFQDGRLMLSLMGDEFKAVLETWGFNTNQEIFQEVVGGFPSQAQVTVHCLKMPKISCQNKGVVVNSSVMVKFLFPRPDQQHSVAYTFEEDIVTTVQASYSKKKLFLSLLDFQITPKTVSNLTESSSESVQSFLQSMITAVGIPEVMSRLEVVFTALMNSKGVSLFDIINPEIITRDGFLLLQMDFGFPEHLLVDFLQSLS
Test: CETP activity in vitro: transfer of [3H]CE from HDL donor to LDL acceptor particles
Assay type: biochemical
Conditions: 50% inhibition of [3H]CE transfer from HDL to LDL, 2 hours at 37° C.; read-out: IC50(μm)
// reported IC50 for each item listed
measure: IC50 (µM)

molecule=COC(=O)c1c(C(F)F)nc(C(F)(F)F)c(CI)c1CC(C)C unit_of_measurement=µM relation_operator== test_value=45
molecule="COC(=O)c1c(C(F)F)nc(C(F)(F)F)c(C(O)c2ccco2)c1CC(C)C (stereo not drawn)" unit_of_measurement=µM relation_operator== test_value=30
molecule=COC(=O)c1c(C(F)F)nc(C(F)(F)F)c(C(=O)Oc2ccccc2OC)c1CC(C)C unit_of_measurement=µM relation_operator=> test_value=100
molecule=COC(=O)c1c(C(F)F)nc(C(F)(F)F)c(C(=O)Sc2ccc(F)cc2Cc2ccc(F)cc2)c1CC(C)C unit_of_measurement=µM relation_operator== test_value=70
molecule=COC(=O)c1c(C(F)F)nc(C(F)(F)F)c(C(=O)Oc2cc(C(C)(C)C)cc(C(C)(C)C)c2)c1CC(C)C unit_of_measurement=µM relation_operator== test_value=60
molecule=CCOC(=O)c1c(C(F)(F)F)nc(C(F)(F)F)c(C)c1Sc1ccc(C(C)C)cc1 unit_of_measurement=µM relation_operator== test_value=25
molecule=COC(=O)c1c(C(F)F)nc(C(F)(F)F)c(C(=O)Oc2ccccc2[N+](=O)[O-])c1CC(C)C unit_of_measurement=µM relation_operator=> test_value=100
molecule=CCOC(=O)c1c(C(F)(F)F)nc(C(F)F)c(NC(=O)Nc2c(C(F)F)nc(C(F)(F)F)c(C(=O)OCC)c2CC)c1CC unit_of_measurement=µM relation_operator== test_value=50
molecule=COC(=O)c1cc(CSC(=S)N(C)C)c(C(F)(F)F)nc1C(F)F unit_of_measurement=µM relation_operator== test_value=50
